tested on: A. baumannii clinical isolate NY H; experiment: Antibiotic susceptibility profile; assay type: cell-based, Acinetobacter baumannii; parameters: key: Resistance; Intermediate; Susceptible
outcomeMeasure: Antibiotic susceptibility

compound	reading
C[C@@H](O)[C@H]1C(=O)N2C(C(=O)O)=C(SCCN=CN)C[C@H]12 [IPM, Imipenem]	R
NCC[C@H](O)C(=O)N[C@@H]1C[C@H](N)[C@@H](O[C@H]2O[C@H](CN)[C@@H](O)[C@H](O)[C@H]2O)[C@H](O)[C@H]1O[C@H]1O[C@H](CO)[C@@H](O)[C@H](N)[C@H]1O [AMK, Amikacin]	R
C[C@H]1COc2c(N3CCN(C)CC3)c(F)cc3c(=O)c(C(=O)O)cn1c23 [LVX, Levofloxacin]	I
NC[C@H]1O[C@H](O[C@H]2[C@H](O)[C@@H](O[C@H]3O[C@H](CO)[C@@H](O)[C@H](N)[C@H]3O)[C@H](N)C[C@@H]2N)[C@H](N)C[C@@H]1O [TOB, Tobramycin]	R

Let me check: CC(C)(O/N=C(\C(=O)N[C@@H]1C(=O)N2C(C(=O)[O-])=C(C[n+]3ccccc3)CS[C@H]12)c1csc(N)n1)C(=O)O [CAZ, Ceftazidime] , system A. baumannii clinical isolate NY H, measured Antibiotic susceptibility is R

====

test system: A. baumannii clinical isolate LAC 16; test: Antibiotic susceptibility profile; assay type: cell-based, Acinetobacter baumannii; design: key: Resistance; Intermediate; Susceptible
outcomeMeasure: Antibiotic susceptibility

> print(dat)
                                   molecule  reading
1  C[C@H]1c2cccc(O)c2C(=O)C2=C(O)[C@]3(O)C(=O)C(C(N)=O)=C(O)[C@@H](N(C)C)[C@@H]3[C@@H](O)[C@@H]21 [DOX, Doxycycline]        S
2  CO/N=C(\C(=O)N[C@@H]1C(=O)N2C(C(=O)[O-])=C(C[N+]3(C)CCCC3)CS[C@H]12)c1csc(N)n1 [FEP, Cefepime]        R
3  CN(C)c1ccc(O)c2c1C[C@H]1C[C@H]3[C@H](N(C)C)C(O)=C(C(N)=O)C(=O)[C@@]3(O)C(O)=C1C2=O [MIN, Minocycline]        S

====

tested on: A. baumannii clinical isolate LAC 12; assay: Antibiotic susceptibility profile; format: cell-based, Acinetobacter baumannii; design: key: Resistance; Intermediate; Susceptible
outcomeMeasure: Antibiotic susceptibility

molecule	outcomeMeasure	reading
NCC[C@H](O)C(=O)N[C@@H]1C[C@H](N)[C@@H](O[C@H]2O[C@H](CN)[C@@H](O)[C@H](O)[C@H]2O)[C@H](O)[C@H]1O[C@H]1O[C@H](CO)[C@@H](O)[C@H](N)[C@H]1O	Antibiotic susceptibility	S
CO/N=C(\C(=O)N[C@@H]1C(=O)N2C(C(=O)O)=C(CSc3nc(=O)c(=O)[nH]n3C)CS[C@H]12)c1csc(N)n1	Antibiotic susceptibility	R
CO/N=C(\C(=O)N[C@@H]1C(=O)N2C(C(=O)[O-])=C(C[N+]3(C)CCCC3)CS[C@H]12)c1csc(N)n1 [FEP, Cefepime]	Antibiotic susceptibility	R
CC(C)(O/N=C(\C(=O)N[C@@H]1C(=O)N2C(C(=O)[O-])=C(C[n+]3ccccc3)CS[C@H]12)c1csc(N)n1)C(=O)O	Antibiotic susceptibility	R
COc1c(N2CCNC(C)C2)c(F)cc2c(=O)c(C(=O)O)cn(C3CC3)c12 (centres unmarked)	Antibiotic susceptibility	R
C[C@H]1c2cccc(O)c2C(=O)C2=C(O)[C@]3(O)C(=O)C(C(N)=O)=C(O)[C@@H](N(C)C)[C@@H]3[C@@H](O)[C@@H]21	Antibiotic susceptibility	R
CN(C)c1ccc(O)c2c1C[C@H]1C[C@H]3[C@H](N(C)C)C(O)=C(C(N)=O)C(=O)[C@@]3(O)C(O)=C1C2=O	Antibiotic susceptibility	R
C[C@@H](O)[C@H]1C(=O)N2C(C(=O)O)=C(SCCN=CN)C[C@H]12	Antibiotic susceptibility	S
C[C@H]1COc2c(N3CCN(C)CC3)c(F)cc3c(=O)c(C(=O)O)cn1c23	Antibiotic susceptibility	R
CO/N=C(\C(=O)N[C@@H]1C(=O)N2C(C(=O)O)=C(COC(C)=O)CS[C@H]12)c1csc(N)n1	Antibiotic susceptibility	R

For the next question, use this molecule.
Antibiotic susceptibility for "C[C@@H](O)[C@H]1C(=O)N2C(C(=O)O)=C(S[C@@H]3CN[C@H](C(=O)N(C)C)C3)[C@H](C)[C@H]12" is S

====

tested on: A. baumannii clinical isolate NY C; assay: Antibiotic susceptibility profile; format: cell-based, Acinetobacter baumannii; parameters: key: Resistance; Intermediate; Susceptible
outcomeMeasure: Antibiotic susceptibility

> print(dat)
                                  molsmiles             outcomemeasure  reading
1  C[C@H]1COc2c(N3CCN(C)CC3)c(F)cc3c(=O)c(C(=O)O)cn1c23  Antibiotic susceptibility        R
2  NC[C@H]1O[C@H](O[C@H]2[C@H](O)[C@@H](O[C@H]3O[C@H](CO)[C@@H](O)[C@H](N)[C@H]3O)[C@H](N)C[C@@H]2N)[C@H](N)C[C@@H]1O  Antibiotic susceptibility        R
3  CN(C)c1ccc(O)c2c1C[C@H]1C[C@H]3[C@H](N(C)C)C(O)=C(C(N)=O)C(=O)[C@@]3(O)C(O)=C1C2=O  Antibiotic susceptibility        S
4  CC(C)(O/N=C(\C(=O)N[C@@H]1C(=O)N2C(C(=O)[O-])=C(C[n+]3ccccc3)CS[C@H]12)c1csc(N)n1)C(=O)O  Antibiotic susceptibility        R

For the next question, use this molecule.
Antibiotic susceptibility for "C[C@H]1c2cccc(O)c2C(=O)C2=C(O)[C@]3(O)C(=O)C(C(N)=O)=C(O)[C@@H](N(C)C)[C@@H]3[C@@H](O)[C@@H]21" is S

====

test system: A. baumannii clinical isolate NY C; assay: Antibiotic susceptibility profile; assay type: cell-based, Acinetobacter baumannii; parameters: key: Resistance; Intermediate; Susceptible
outcomeMeasure: Antibiotic susceptibility

> print(dat)
                                   compound             outcomemeasure  reading
1  CO/N=C(\C(=O)N[C@@H]1C(=O)N2C(C(=O)O)=C(COC(C)=O)CS[C@H]12)c1csc(N)n1 [CTX, Cefotaxime]  Antibiotic susceptibility        R
2  CN(C)[C@@H]1C(O)=C(C(N)=O)C(=O)[C@@]2(O)C(O)=C3C(=O)c4c(O)cccc4[C@@](C)(O)[C@H]3C[C@@H]12 [TET, Tetracycline]  Antibiotic susceptibility        R
3  C[C@@H](O)[C@H]1C(=O)N2C(C(=O)O)=C(S[C@@H]3CN[C@H](C(=O)N(C)C)C3)[C@H](C)[C@H]12 [MEM, Meropenem]  Antibiotic susceptibility        R

====

system: A. baumannii clinical isolate LAC 17; assay: Antibiotic susceptibility profile; assay type: cell-based, Acinetobacter baumannii; parameters: key: Resistance; Intermediate; Susceptible
outcomeMeasure: Antibiotic susceptibility

molecule	reading
C[C@H]1COc2c(N3CCN(C)CC3)c(F)cc3c(=O)c(C(=O)O)cn1c23	R
NCC[C@H](O)C(=O)N[C@@H]1C[C@H](N)[C@@H](O[C@H]2O[C@H](CN)[C@@H](O)[C@H](O)[C@H]2O)[C@H](O)[C@H]1O[C@H]1O[C@H](CO)[C@@H](O)[C@H](N)[C@H]1O	I
CN(C)[C@@H]1C(O)=C(C(N)=O)C(=O)[C@@]2(O)C(O)=C3C(=O)c4c(O)cccc4[C@@](C)(O)[C@H]3C[C@@H]12	R
C[C@@H](O)[C@H]1C(=O)N2C(C(=O)O)=C(SCCN=CN)C[C@H]12	I
CCN1CCN(C(=O)N[C@@H](C(=O)N[C@@H]2C(=O)N3[C@@H]2SC(C)(C)[C@@H]3C(=O)O)c2ccccc2)C(=O)C1=O	R

For the next question, use this molecule.
Antibiotic susceptibility for "NC[C@H]1O[C@H](O[C@H]2[C@H](O)[C@@H](O[C@H]3O[C@H](CO)[C@@H](O)[C@H](N)[C@H]3O)[C@H](N)C[C@@H]2N)[C@H](N)C[C@@H]1O" is R

====

system: A. baumannii reference strain SDF; test: Antibiotic susceptibility profile; type: cell-based, Acinetobacter baumannii; set-up: key: Resistance; Intermediate; Susceptible

compound	Antibiotic susceptibility
CCN1CCN(C(=O)N[C@@H](C(=O)N[C@@H]2C(=O)N3[C@@H]2SC(C)(C)[C@@H]3C(=O)O)c2ccccc2)C(=O)C1=O [PIP, Piperacillin]	R
CO/N=C(\C(=O)N[C@@H]1C(=O)N2C(C(=O)O)=C(CSc3nc(=O)c(=O)[nH]n3C)CS[C@H]12)c1csc(N)n1 [CRO, Ceftriaxone]	I
NCC[C@H](O)C(=O)N[C@@H]1C[C@H](N)[C@@H](O[C@H]2O[C@H](CN)[C@@H](O)[C@H](O)[C@H]2O)[C@H](O)[C@H]1O[C@H]1O[C@H](CO)[C@@H](O)[C@H](N)[C@H]1O [AMK, Amikacin]	S
